- Test system: S. aureus (ATCC 29213)
- PROTOCOL DETAILS: MIC determination, broth microdilution
- Assay type: cell-based, Staphylococcus aureus
- TEST PARAMETERS: S. aureus ATCC 29213; MHB-II, inoculum 5 × 10^5 CFU/mL, 37 °C, 18–24 h, triplicate
Non-standard residues stand in square brackets, D forms with d. Residues, ends and D or L forms follow the SMILES beside them.
# Lookup of reported MIC SA keyed by entry

{"COMPOUND": "CCCCCCCCCC(=O)N[C@H](CCCCN)C(=O)N[C@H](CCCCN)C(=O)N[C@H](CC(C)C)C(=O)N[C@H](Cc1ccccc1)C(=O)N[C@H](CCCCN)C(=O)N[C@H](CCCCN)C(=O)N1CCCC[C@H](C(N)=O)NC(=O)[C@@H](Cc2ccc(O)cc2)NC(=O)[C@@H](CCCNC(=N)N)NC(=O)[C@@H](CC(C)C)NC(=O)[C@@H]([C@H](C)CC)NC(=O)C1", "MIC SA / µg/mL": 4}
{"COMPOUND": "CC[C@@H](C)[C@@H](NC(=O)[C@@H](CCCCN)NC(=O)[C@@H](CCCCN)NC(=O)[C@@H](Cc1ccccc1)NC(=O)[C@@H](CC(C)C)NC(=O)[C@@H](CCCCN)NC(=O)[C@H](N)CCCCN)C(=O)N[C@H](CC(C)C)C(=O)N[C@H](CCCNC(=N)N)C(=O)N[C@H](Cc1ccc(O)cc1)C(=O)N[C@H](CC(C)C)C(N)=O [BP214, reference compound] (H-[dK][dK][dL][dF][dK][dK][dI][dL][dR][dY][dL]-NH2; N-terminus assumed)", "MIC SA / µg/mL": 8}
{"COMPOUND": "CCCCCCCCCCCC(=O)N[C@H](CCCCN)C(=O)N[C@H](CCCCN)C(=O)N[C@H](CC(C)C)C(=O)N[C@H](Cc1ccccc1)C(=O)N[C@H](CCCCN)C(=O)N[C@H](CCCCN)C(=O)N[C@@H](C(=O)N[C@H](CC(C)C)C(=O)N1CCCC[C@H](C(N)=O)NC(=O)[C@@H](Cc2ccc(O)cc2)NC(=O)[C@@H](CCCNC(=N)N)NC(=O)C1)[C@H](C)CC", "MIC SA / µg/mL": 4}

* * *

As shown below, each of these molecules has a reported %B (hydrophobicity: percentage of mobile phase B at the peak elution time) value.
- PROTOCOL DETAILS: Hydrophobicity by analytical RP-HPLC (%B at elution)
- Type: physicochemical
- TEST PARAMETERS: chromatographic, analytical reversed-phase HPLC, Waters Symmetry C18 5 μm 4.6 × 250 mm; A: H2O + 0.1% TFA, B: 90:10 ACN-H2O + 0.1% TFA
Non-standard residues stand in square brackets, D forms with d. Residues, ends and D or L forms follow the SMILES beside them. *: point of attachment. Hexanoyl = CCCCCC(=O)*
ENDPOINT NAME: %B (hydrophobicity: percentage of mobile phase B at the peak elution time) (%B)

{"MOLECULE": "CCCCCCCCCC(=O)N[C@H](CCCCN)C(=O)N[C@H](CCCCN)C(=O)N[C@H](CC(C)C)C(=O)N[C@H](Cc1ccccc1)C(=O)N[C@H](CCCCN)C(=O)N[C@H](CCCCN)C(=O)N[C@@H](C(=O)N[C@H](CC(C)C)C(=O)N1CCCC[C@H](C(N)=O)NC(=O)[C@@H](Cc2ccc(O)cc2)NC(=O)[C@@H](CCCNC(=N)N)NC(=O)C1)[C@H](C)CC", "MEAS VALUE": 62.7}
{"MOLECULE": "CCCCCC(=O)N[C@H](CCCCN)C(=O)N[C@H](CCCCN)C(=O)N[C@H](CC(C)C)C(=O)N[C@H](Cc1ccccc1)C(=O)N[C@H](CCCCN)C(=O)N[C@H](CCCCN)C(=O)N[C@@H](C(=O)N[C@H](CC(C)C)C(=O)N[C@H](CCCNC(=N)N)C(=O)N[C@H](Cc1ccc(O)cc1)C(=O)N[C@H](CC(C)C)C(N)=O)[C@H](C)CC [compound 2] (Hexanoyl-[dK][dK][dL][dF][dK][dK][dI][dL][dR][dY][dL]-NH2)", "MEAS VALUE": 67.9}
{"MOLECULE": "CCCCCCCCCCCC(=O)N[C@H](CCCCN)C(=O)N[C@H](CCCCN)C(=O)N[C@H](CC(C)C)C(=O)N[C@H](Cc1ccccc1)C(=O)N[C@H](CCCCN)C(=O)N[C@H](CCCCN)C(=O)N[C@@H](C(=O)N[C@H](CC(C)C)C(=O)N1CCCC[C@H](C(N)=O)NC(=O)[C@@H](Cc2ccc(O)cc2)NC(=O)[C@@H](CCCNC(=N)N)NC(=O)C1)[C@H](C)CC", "MEAS VALUE": 66.2}

* * *

- Test system: K. pneumoniae (ATCC 13883)
- Assay type: cell-based, Klebsiella pneumoniae
- TEST PARAMETERS: K. pneumoniae ATCC 13883; MHB-II, inoculum 5 × 10^5 CFU/mL, 37 °C, 18–24 h, triplicate
Non-standard residues stand in square brackets, D forms with d. Residues, ends and D or L forms follow the SMILES beside them. *: point of attachment. Hexanoyl = CCCCCC(=O)*

{"COMPOUND": "CCCCCCCCCC(=O)N[C@H](CCCCN)C(=O)N[C@H](CCCCN)C(=O)N[C@H](CC(C)C)C(=O)N[C@H](Cc1ccccc1)C(=O)N[C@H](CCCCN)C(=O)N[C@H](CCCCN)C(=O)N1CCCC[C@H](C(N)=O)NC(=O)[C@@H](Cc2ccc(O)cc2)NC(=O)[C@@H](CCCNC(=N)N)NC(=O)[C@@H](CC(C)C)NC(=O)[C@@H]([C@H](C)CC)NC(=O)C1", "QUALIFYING SIGN": "=", "MIC KP, µg/mL": 16}
{"COMPOUND": "CC[C@@H](C)[C@H]1NC(=O)CN(C(=O)[C@@H](CCCCN)NC(=O)[C@@H](CCCCN)NC(=O)[C@@H](Cc2ccccc2)NC(=O)[C@@H](CC(C)C)NC(=O)[C@@H](CCCCN)NC(=O)[C@H](N)CCCCN)CCCC[C@H](C(N)=O)NC(=O)[C@@H](Cc2ccc(O)cc2)NC(=O)[C@@H](CCCNC(=N)N)NC(=O)[C@@H](CC(C)C)NC1=O", "QUALIFYING SIGN": ">", "MIC KP, µg/mL": 64}
{"COMPOUND": "CCCCCC(=O)N[C@H](CCCCN)C(=O)N[C@H](CCCCN)C(=O)N[C@H](CC(C)C)C(=O)N[C@H](Cc1ccccc1)C(=O)N[C@H](CCCCN)C(=O)N[C@H](CCCCN)C(=O)N[C@@H](C(=O)N[C@H](CC(C)C)C(=O)N[C@H](CCCNC(=N)N)C(=O)N[C@H](Cc1ccc(O)cc1)C(=O)N[C@H](CC(C)C)C(N)=O)[C@H](C)CC [compound 2] (Hexanoyl-[dK][dK][dL][dF][dK][dK][dI][dL][dR][dY][dL]-NH2)", "QUALIFYING SIGN": "=", "MIC KP, µg/mL": 8}

* * *

- Tested on: K. pneumoniae (ATCC 13883)
- Format: cell-based, Klebsiella pneumoniae
- TEST PARAMETERS: K. pneumoniae ATCC 13883; MHB-II, inoculum 5 × 10^5 CFU/mL, 37 °C, 18–24 h, triplicate
Non-standard residues stand in square brackets, D forms with d. Residues, ends and D or L forms follow the SMILES beside them. *: point of attachment. Decanoyl = CCCCCCCCCC(=O)*; Octanoyl = CCCCCCCC(=O)*
ENDPOINT NAME: MIC KP (µg/mL)

{"COMPOUND": "CCCCCCCCCC(=O)N[C@H](CCCCN)C(=O)N[C@H](CCCCN)C(=O)N[C@H](CC(C)C)C(=O)N[C@H](Cc1ccccc1)C(=O)N[C@H](CCCCN)C(=O)N[C@H](CCCCN)C(=O)N[C@@H](C(=O)N1CCCC[C@H](C(N)=O)NC(=O)[C@@H](Cc2ccc(O)cc2)NC(=O)[C@@H](CCCNC(=N)N)NC(=O)[C@@H](CC(C)C)NC(=O)C1)[C@H](C)CC", "ENDPOINT NAME": "MIC KP", "MEAS VALUE": 16}
{"COMPOUND": "CCCCCCCCCCCCCC(=O)N[C@H](CCCCN)C(=O)N[C@H](CCCCN)C(=O)N[C@H](CC(C)C)C(=O)N[C@H](Cc1ccccc1)C(=O)N[C@H](CCCCN)C(=O)N[C@H](CCCCN)C(=O)N[C@@H](C(=O)N1CCCC[C@H](C(N)=O)NC(=O)[C@@H](Cc2ccc(O)cc2)NC(=O)[C@@H](CCCNC(=N)N)NC(=O)[C@@H](CC(C)C)NC(=O)C1)[C@H](C)CC", "ENDPOINT NAME": "MIC KP", "MEAS VALUE": 16}
{"COMPOUND": "CCCCCCCC(=O)N[C@H](CCCCN)C(=O)N[C@H](CCCCN)C(=O)N[C@H](CC(C)C)C(=O)N[C@H](Cc1ccccc1)C(=O)N[C@H](CCCCN)C(=O)N[C@H](CCCCN)C(=O)N[C@@H](C(=O)N[C@H](CC(C)C)C(=O)N[C@H](CCCNC(=N)N)C(=O)N[C@H](Cc1ccc(O)cc1)C(=O)N[C@H](CC(C)C)C(N)=O)[C@H](C)CC [compound 3] (Octanoyl-[dK][dK][dL][dF][dK][dK][dI][dL][dR][dY][dL]-NH2)", "ENDPOINT NAME": "MIC KP", "MEAS VALUE": 8}
{"COMPOUND": "CCCCCCCCCC(=O)N[C@H](CCCCN)C(=O)N[C@H](CCCCN)C(=O)N[C@H](CC(C)C)C(=O)N[C@H](Cc1ccccc1)C(=O)N[C@H](CCCCN)C(=O)N[C@H](CCCCN)C(=O)N[C@@H](C(=O)N[C@H](CC(C)C)C(=O)N[C@H](CCCNC(=N)N)C(=O)N[C@H](Cc1ccc(O)cc1)C(=O)N[C@H](CC(C)C)C(N)=O)[C@H](C)CC [compound 4] (Decanoyl-[dK][dK][dL][dF][dK][dK][dI][dL][dR][dY][dL]-NH2)", "ENDPOINT NAME": "MIC KP", "MEAS VALUE": 32}
{"COMPOUND": "CCCCCCCCCCCCCC(=O)N[C@H](CCCCN)C(=O)N[C@H](CCCCN)C(=O)N[C@H](CC(C)C)C(=O)N[C@H](Cc1ccccc1)C(=O)N[C@H](CCCCN)C(=O)N[C@H](CCCCN)C(=O)N[C@@H](C(=O)N[C@H](CC(C)C)C(=O)N1CCCC[C@H](C(N)=O)NC(=O)[C@@H](Cc2ccc(O)cc2)NC(=O)[C@@H](CCCNC(=N)N)NC(=O)C1)[C@H](C)CC", "ENDPOINT NAME": "MIC KP", "MEAS VALUE": 4}
